Measured values drawn from PubChem BioAssay AID330 for this set.

Field: T/C. Provide a value for each of the compounds that follow.
System: P388 leukemia ip, CD2F1 mice, survival T/C
Assay: NCI In Vivo Anticancer Drug Screen. Data for tumor model P388 Leukemia (intraperitoneal) in CD2F1 (CDF1) mice
Conditions: endpoint: median survival time; dose: 100.0 mg/kg/injection; schedule: Q01DX009 (ip); vehicle: Klucel (hydroxypropylcellulose) (HPC); higher = longer survival
Inconclusive results and toxic doses are left out.

Query :: # return recorded T/C for entry `S=c1[nH]ccn1-c1ccccc1`
Result :: 109 % of control

Query :: Please report T/C for the following compound: `O=S(=O)(NN=C(c1ccccc1)c1ccccc1)c1ccccc1`
Result :: 101 % of control

Query :: Dear colleague, please send me the reported T/C for `O=C1C=C(O)CN1C(=O)c1ccc(Cl)cc1` when you can.
Result :: 107 % of control

Query :: Look up and state reported T/C for COC(=O)N1CC2C=CC1C(Cl)(C#N)C2 (centres undefined)
Result :: 90 % of control

Query :: Determine from records and report T/C for `Oc1ccccc1C=Nc1ccc2nc(SC3CCCC3)sc2c1`
Result :: 97 % of control

Query :: Look up and report measured T/C for this entry: `Ic1ccc(N=Cc2ccc(C=Nc3ccc(I)cc3)cc2)cc1`
Result :: 86 % of control

Query :: Output measured T/C for this item: `O=C(/C=C/c1ccc(Cl)c(Cl)c1)c1cccc(O)c(=O)c1`
Result :: 118 % of control

Query :: Item O=C1c2ccccc2C(=O)C1(Br)C(Cl)c1ccccc1 (centres undefined) : provide T/C
Result :: 95 % of control

Query :: Write down T/C measured for item CC(=O)/C(C=NCC(C)(CN=C/C(C(C)=O)=C(/C)O)CN=C/C(C(C)=O)=C(/C)O)=C(\C)O (centres undefined)
Result :: 100 % of control

Query :: In one line, give reported T/C of the entry `Cc1cc(C)c(CCl)c(C)c1CCl` .
Result :: 100 % of control

Query :: State, in one line, measured T/C of `O=C(O)c1ccccc1NC(=S)Nc1ccccc1C(F)(F)F`
Result :: 96 % of control

Query :: In one line, give reported T/C of the entry NC(Cc1c[nH]c2ccccc12)C(=O)O (centres undefined) .
Result :: 107 % of control

Query :: Quick one: give measured T/C for `CCCCCCCC/C=C/CCCCCCCC(=O)OCC(=O)OCC`
Result :: 93 % of control

Query :: Given the compound `CCOc1ccc(NC(=O)OCc2c3ccccc3cc3ccccc23)cc1` , write its reported T/C.
Result :: 96 % of control

Query :: Input `COc1ccc(/C=C2\SC(=S)NC2=O)cc1OC` , output reported T/C.
Result :: 92 % of control

Query :: Give the value of T/C reported for the following: N#CC1C(=O)NC(=O)C(C#N)C1c1ccccc1 (centres undefined)
Result :: 101 % of control

Query :: # return recorded T/C for entry O=C1OC(=O)C23Cc4ccccc4CC12CC1Cc2ccccc2CC1C3 (centres undefined)
Result :: 88 % of control

Query :: Give the reported value of T/C for this record: `O=C(C(Br)(Br)Br)C(Br)(Br)c1ccccc1`
Result :: 101 % of control

Query :: Give T/C for `CSc1ccccc1P(c1ccccc1)c1ccccc1SC`
Result :: 91 % of control

Query :: Quick one: give measured T/C for Cc1ncc(C(O)CCC2OCCO2)n1Cc1ccccc1 (centres undefined)
Result :: 98 % of control

Query :: For the compound `COC(=O)/C=C1\C(=O)OC(C)(C)C1(C)C` , report T/C.
Result :: 100 % of control

Query :: Read off the recorded T/C for `C=CCc1ccc(O)cc1`
Result :: 107 % of control

Query :: Consider the compound `O=c1[nH]cc([N+](=O)[O-])c(=O)[nH]1` . State its measured T/C.
Result :: 95 % of control

Query :: Note down T/C recorded for CCCC(NC(=O)C(C)N)C(=O)O (centres undefined)
Result :: 95 % of control

Query :: Output measured T/C for this item: CC12CC3(C)CC(C)(C1)CC(C(Cl)C(=O)NC1CCCCC1)(C2)C3 (centres undefined)
Result :: 107 % of control

Query :: Fill in T/C for record `Cn1c(C(C)(C)OC(=O)Oc2ccccc2)cnc1[N+](=O)[O-]`
Result :: 96 % of control

Query :: Tell us which T/C value is on record for `CCn1c2ccccc2c2cc(N)c(N=Nc3ccc([N+](=O)[O-])cc3)cc21`
Result :: 104 % of control

Query :: Give reported T/C value for `CCOc1ccccc1/C=C1\CCc2ccccc2C1=O`
Result :: 100 % of control

Query :: Supply measured T/C of O=[N+]([O-])c1ccccc1OCC1CO1 (centres undefined) in your reply.
Result :: 105 % of control

Query :: Identify T/C associated with the compound O=C1c2ccccc2CCCC12OC2c1ccccn1 (centres undefined)
Result :: 98 % of control

Query :: Please give measured T/C of the following entry: `C=CCc1c(O)c(OC)cc2c1C(=O)CCCC2`
Result :: 100 % of control

Query :: Retrieve T/C measured for `N=Nc1c(O)[nH]c2ccccc12` and print it.
Result :: 89 % of control

Query :: Give T/C for the following compound: `N#CCCCN1C(=O)c2ccccc2C1=O`
Result :: 104 % of control

Query :: Assign T/C to the following record: CC(C)=CCC1(O)C(=O)c2ccccc2C1(O)C(=O)O (centres undefined)
Result :: 107 % of control

Query :: Read the entry `CSc1nc(N)c(C(=O)Nc2ccccc2)s1` and write its reported T/C.
Result :: 101 % of control

Query :: Please give measured T/C of the following entry: `CC(=O)Nc1ccc(O)c(CN2CCN(c3ccccc3)CC2)c1`
Result :: 103 % of control

Query :: Supply T/C value. Item: `CC1=C/C(=N\NS(=O)(=O)c2ccc([N+](=O)[O-])cc2)CC(C)(C)C1`
Result :: 87 % of control

Query :: Look up T/C of `O=C(N/N=C\c1ccc(O)cc1O)C(=O)N/N=C\c1ccc(O)cc1O` and report it.
Result :: 105 % of control

Query :: Write down T/C measured for item `CCCCCCCSc1nc2ccc(N=Cc3ccccc3O)cc2s1`
Result :: 103 % of control

Query :: Provide measured T/C value, entry: `Cc1ccc(N=Cc2cccs2)c(Br)c1`
Result :: 118 % of control

Query :: Give the reported value of T/C for this record: CC(C)N1C(C)c2ccccc2OS1=O (centres undefined)
Result :: 108 % of control

Query :: Using known records, supply T/C for `NN=c1c2ccccc2oc2ccccc12`
Result :: 115 % of control

Query :: Using known records, supply T/C for `Brc1cc(-c2ccccc2)no1`
Result :: 111 % of control

Query :: Return value of T/C for input CCC1(CC(=O)O)OCCc2c1[nH]c1c(C)c(F)ccc21 (centres undefined) , no commentary.
Result :: 96 % of control
